B1: Triosephosphate isomerase, glycosomal, P04789 (parent)
chain: MSKPQPIAAANWKCNGSQQSLSELIDLFNSTSINHDVQCVVASTFVHLAMTKERLSHPKFVIAAQNAIAKSGAFTGEVSLPILKDFGVNWIVLGHSERRAYYGETNEIVADKVAAAVASGFMVIACIGETLQERESGRTAVVVLTQIAAIAKKLKKADWAKVVIAYEPVWAIGTGKVATPQQAQEAHALIRSWVSSKIGADVAGELRILYGGSVNGKNARTLYQQRDVNGFLVGGASLKPEFVDIIKATQ

Variants of: B1
Test parameters: Trypanosoma brucei brucei; pH 7; Thermal; CD; 3-(N-morpholino)propanesulfonic acid/dithiothreitol 20 mM/0.02 mM; EDTA 0.02 mM; structure 3TIM; whole UniProt chain shown

>  <Mutation id>
R191A

>  <Quantity unit>
°C

>  <Tm>
47.3

$$$$
>  <Mutation id>
D227A

>  <Quantity unit>
°C

>  <Tm>
48.7

$$$$
>  <Mutation id>
R191S

>  <Quantity unit>
°C

>  <Tm>
51.6

$$$$
>  <Mutation id>
D227N

>  <Quantity unit>
°C

>  <Tm>
49.3

$$$$
